Test method notes: Placebo controlled, dose escalation pharmacokinetic study of oral (Z)-Endoxifen capsules (serum endoxifen; incl. accumulation ratios and dose linearity)
Assay type: in vivo, human
Cond: female, human, serum, oral, 2 mg, Day 1; 2 mg; N 6; read-out: AUCTlast, Median
Outcome measure: AUC(0-t) (µg·h/mL)
The reply should be a number in µg·h/mL, with the unit left off.

Tell me the measured AUC(0-t) of CC/C(=C(\c1ccc(O)cc1)c1ccc(OCCNC)cc1)c1ccccc1 [(Z)-Endoxifen] , please.
0.955

* * *

Test method notes: Placebo controlled, dose escalation pharmacokinetic study of oral (Z)-Endoxifen capsules (serum endoxifen; incl. accumulation ratios and dose linearity)
Format: in vivo, human
Cond: female, human, serum, po, 1 mg/day, Day 1; 1 mg/day oral (n = 5); read-out: AUC24 hr, Arithmetic Mean
Outcome measure: AUC(0-t)
Dear colleague, please send the value followed by its unit.

Tell me the measured AUC(0-t) of CC/C(=C(\c1ccc(O)cc1)c1ccc(OCCNC)cc1)c1ccccc1 [(Z)-Endoxifen] , please.
158 ng·h/mL

* * *

Test method notes: Placebo controlled, dose escalation pharmacokinetic study of oral (Z)-Endoxifen capsules (serum endoxifen; incl. accumulation ratios and dose linearity)
Type: in vivo, human
Cond: female, human, serum, oral, 1 mg; Day 1 hr 8; read-out: Serum concentration, GeoMean
Outcome measure: concentration at 8 h
Dear colleague, please send the value followed by its unit.

Tell me the measured concentration at 8 h of CC/C(=C(\c1ccc(O)cc1)c1ccc(OCCNC)cc1)c1ccccc1 [(Z)-Endoxifen] , please.
21.1 nM

* * *

Test method notes: Placebo controlled, dose escalation pharmacokinetic study of oral (Z)-Endoxifen capsules (serum endoxifen; incl. accumulation ratios and dose linearity)
Assay type: in vivo, human
Cond: female, human, serum, po, 4 mg, Day 21; dose 4 mg oral once daily; Median, N 6; read-out: apparent terminal half life (t½) (converted)
Outcome measure: half-life (h)
The reply should be a number in h, with the unit left off.

Tell me the measured half-life of CC/C(=C(\c1ccc(O)cc1)c1ccc(OCCNC)cc1)c1ccccc1 [(Z)-Endoxifen] , please.
45.3

* * *

Test method notes: Placebo controlled, dose escalation pharmacokinetic study of oral (Z)-Endoxifen capsules (serum endoxifen; incl. accumulation ratios and dose linearity)
Format: in vivo, human
Cond: female, human, serum, po, 4 mg, Day 1; dose 4 mg oral; GeoMean, N 6; read-out: Tmax
Outcome measure: Tmax (h)
The reply should be a number in h, with the unit left off.

Tell me the measured Tmax of CC/C(=C(\c1ccc(O)cc1)c1ccc(OCCNC)cc1)c1ccccc1 [(Z)-Endoxifen] , please.
5.15

* * *

Test method notes: Placebo controlled, dose escalation pharmacokinetic study of oral (Z)-Endoxifen capsules (serum endoxifen; incl. accumulation ratios and dose linearity)
Type: in vivo, human
Cond: female, human, serum, po, 2 mg/day, Day 21; 2 mg/day oral (n = 6); read-out: t1/2, Arithmetic Mean (converted)
Outcome measure: half-life (h)
The reply should be a number in h, with the unit left off.

Tell me the measured half-life of CC/C(=C(\c1ccc(O)cc1)c1ccc(OCCNC)cc1)c1ccccc1 [(Z)-Endoxifen] , please.
43.4

* * *

Test method notes: Placebo controlled, dose escalation pharmacokinetic study of oral (Z)-Endoxifen capsules (serum endoxifen; incl. accumulation ratios and dose linearity)
Assay type: in vivo, human
Cond: female, human, serum, oral, 1 mg; Day 6 Hr 120; read-out: Serum concentration, Mean
Outcome measure: concentration at 120 h

Tell me the measured concentration at 120 h of CC/C(=C(\c1ccc(O)cc1)c1ccc(OCCNC)cc1)c1ccccc1 [(Z)-Endoxifen] , please.
3.75 nM

* * *

Test method notes: Placebo controlled, dose escalation pharmacokinetic study of oral (Z)-Endoxifen capsules (serum endoxifen; incl. accumulation ratios and dose linearity)
Format: in vivo, human
Cond: female, human, serum, oral, 1 mg; Day 1 hr 24; read-out: Serum concentration, Min
Outcome measure: concentration at 24 h (nM)
The reply should be a number in nM, with the unit left off.

Tell me the measured concentration at 24 h of CC/C(=C(\c1ccc(O)cc1)c1ccc(OCCNC)cc1)c1ccccc1 [(Z)-Endoxifen] , please.
10.7

* * *

Test method notes: Placebo controlled, dose escalation pharmacokinetic study of oral (Z)-Endoxifen capsules (serum endoxifen; incl. accumulation ratios and dose linearity)
Assay type: in vivo, human
Cond: female, human, serum, oral, 1 mg; Day 1 hr 4; read-out: Serum concentration, Median
Outcome measure: concentration at 4 h

Tell me the measured concentration at 4 h of CC/C(=C(\c1ccc(O)cc1)c1ccc(OCCNC)cc1)c1ccccc1 [(Z)-Endoxifen] , please.
18.7 nM

* * *

Test method notes: Placebo controlled, dose escalation pharmacokinetic study of oral (Z)-Endoxifen capsules (serum endoxifen; incl. accumulation ratios and dose linearity)
Assay type: in vivo, human
Cond: female, human, serum, oral, 1 mg; Day 4 Hr 72; read-out: Serum concentration, Mean
Outcome measure: concentration at 72 h (nM)
The reply should be a number in nM, with the unit left off.

Tell me the measured concentration at 72 h of CC/C(=C(\c1ccc(O)cc1)c1ccc(OCCNC)cc1)c1ccccc1 [(Z)-Endoxifen] , please.
8.03

* * *

Test method notes: Placebo controlled, dose escalation pharmacokinetic study of oral (Z)-Endoxifen capsules (serum endoxifen; incl. accumulation ratios and dose linearity)
Format: in vivo, human
Cond: female, human, serum, oral, 1 mg, Day 21; 1 mg; N = 5; read-out: Tmax, Mean
Outcome measure: Tmax (h)
The reply should be a number in h, with the unit left off.

Tell me the measured Tmax of CC/C(=C(\c1ccc(O)cc1)c1ccc(OCCNC)cc1)c1ccccc1 [(Z)-Endoxifen] , please.
6.88

* * *

Test method notes: Placebo controlled, dose escalation pharmacokinetic study of oral (Z)-Endoxifen capsules (serum endoxifen; incl. accumulation ratios and dose linearity)
Assay type: in vivo, human
Cond: female, human, serum, oral, 2 mg, Day 1; 2 mg; N 6; read-out: AUC24hr, Mean
Outcome measure: AUC(0-t) (ng·h/mL)
The reply should be a number in ng·h/mL, with the unit left off.

Tell me the measured AUC(0-t) of CC/C(=C(\c1ccc(O)cc1)c1ccc(OCCNC)cc1)c1ccccc1 [(Z)-Endoxifen] , please.
305

* * *

Test method notes: Placebo controlled, dose escalation pharmacokinetic study of oral (Z)-Endoxifen capsules (serum endoxifen; incl. accumulation ratios and dose linearity)
Format: in vivo, human
Cond: female, human, serum, oral, 1 mg; Day 1 hr 10; read-out: Serum concentration, Max
Outcome measure: concentration at 10 h (nM)
The reply should be a number in nM, with the unit left off.

Tell me the measured concentration at 10 h of CC/C(=C(\c1ccc(O)cc1)c1ccc(OCCNC)cc1)c1ccccc1 [(Z)-Endoxifen] , please.
32.1

* * *

Test method notes: Placebo controlled, dose escalation pharmacokinetic study of oral (Z)-Endoxifen capsules (serum endoxifen; incl. accumulation ratios and dose linearity)
Assay type: in vivo, human
Cond: female, human, serum, po, 2 mg, Day 21; dose 2 mg oral once daily; Median, N 6; read-out: Cmax
Outcome measure: Cmax

Tell me the measured Cmax of CC/C(=C(\c1ccc(O)cc1)c1ccc(OCCNC)cc1)c1ccccc1 [(Z)-Endoxifen] , please.
51 ng/mL

* * *

Test method notes: Placebo controlled, dose escalation pharmacokinetic study of oral (Z)-Endoxifen capsules (serum endoxifen; incl. accumulation ratios and dose linearity)
Type: in vivo, human
Cond: female, human, serum, po, 1 mg, Dose: 1 mg oral; Day 1; read-out: AUC(0-inf), individual subjects
From the text: An objective of the study was to assess the safety and tolerability of oral (Z)-Endoxifen when administered […] orally as a capsule to healthy female volunteers. A secondary objective was to assess the pharmacokinetics of multiple doses of oral (Z)-Endoxifen in the subjects. Generally, healthy female volunteers aged ≥18 years and ≤65 years were enrolled. 24 participants were enrolled in 3 cohorts and will be administered study drug orally. […]
Outcome measure: AUC(0-inf) (ng·h/mL)
The reply should be a number in ng·h/mL, with the unit left off.

Tell me the measured AUC(0-inf) of CC/C(=C(\c1ccc(O)cc1)c1ccc(OCCNC)cc1)c1ccccc1 [(Z)-Endoxifen] , please.
593

* * *

Test method notes: Placebo controlled, dose escalation pharmacokinetic study of oral (Z)-Endoxifen capsules (serum endoxifen; incl. accumulation ratios and dose linearity)
Assay type: in vivo, human
Cond: female, human, serum, po, 4 mg, Day 1; dose 4 mg oral; Median, N 6; read-out: AUC24hr
Outcome measure: AUC(0-t) (ng·h/mL)
The reply should be a number in ng·h/mL, with the unit left off.

Tell me the measured AUC(0-t) of CC/C(=C(\c1ccc(O)cc1)c1ccc(OCCNC)cc1)c1ccccc1 [(Z)-Endoxifen] , please.
539

* * *

Test method notes: Placebo controlled, dose escalation pharmacokinetic study of oral (Z)-Endoxifen capsules (serum endoxifen; incl. accumulation ratios and dose linearity)
Format: in vivo, human
Cond: female, human, serum, oral, 1 mg; Day 1 hr 24; read-out: Serum concentration, Median
Outcome measure: concentration at 24 h (µM)
The reply should be a number in µM, with the unit left off.

Tell me the measured concentration at 24 h of CC/C(=C(\c1ccc(O)cc1)c1ccc(OCCNC)cc1)c1ccccc1 [(Z)-Endoxifen] , please.
0.0161
